The origin of these recorded values is PubChem BioAssay (NCI).

Consider the following compounds; for each one, report its growth.
Tested on: HOP-92 NSCLC
protocol.description: NCI-60 one-dose screen, 48 h (100 = growth as untreated, 0 = no growth, -100 = all killed)
condition.parameters: 10 µM unless noted
This is part of a sample that, as a whole, favours compounds with a hit. Of some 83,000 tested, about 20% had one in any assay.
// note: answer is a bare numeric in %

Output growth of OC(c1cccc(C(F)(F)F)c1)c1cnccc1NC1CCCCC1 (stereo not drawn)
45.4

Output growth of COc1ccc2nc(-c3ccc(-c4noc(-c5cc(OC)c(OC)c(OC)c5)n4)cc3)[nH]c2c1
76.2

Output growth of COc1ccc(/C=C/c2nc(Nc3cccc(NC(C)=O)c3)c3ccccc3n2)cc1
69.4

* * *

System: NCI-H522 lung
protocol.description: NCI-60 one-dose screen, 48 h
condition.parameters: 10 µM unless noted
The panel holds about 83,000 compounds, 20% with a hit somewhere; the sample as a whole holds those more often. Activity calls are given as the source filed them. Rule for the calls: active = growth percent below 10; inactive = the rest.
I would appreciate it if you answered using one of these outcomes: 1.0 for active, 0.0 for inactive

Recorded test call requested for COc1cc(/C=C\c2cc(/C=C\c3ccc(O)c(OC)c3)n(C(=O)COc3ccccc3)n2)ccc1O
1.0

Recorded test call requested for Cc1ccc(-n2nc3c(c(C#N)c2=O)CC(c2ccccc2[N+](=O)[O-])C([N+](=O)[O-])=C3O)cc1 (configuration not stated)
0.0

Recorded test call requested for O=C1c2cccc3c(-c4ccc5c(c4)ncn5C4CCCCC4)ccc(c23)C(=O)N1c1nc2ccccc2s1
0.0

Recorded test call requested for CCOC(=O)[C@@H](C)C[C@H](Cc1ccccc1)NC(=O)c1csc([C@@H](C[C@H](C(C)C)N(C)C(=O)[C@@H](NC(=O)[C@H]2C[C@H](O[Si](C)(C)C(C)(C)C)CCN2C)C(C)C)OC(C)=O)n1
1.0

Recorded test call requested for C=C(C)[C@@H]1CC[C@]2(C(=O)N3CCN(C)CC3)CC[C@]3(C)[C@H](CC[C@@H]4[C@@]5(C)C/C(=C/c6ccncc6)C(=O)C(C)(C)[C@@H]5CC[C@]43C)[C@@H]12
0.0

Recorded test call requested for COc1ccc(-c2cnc3c(-c4cccc5ncccc45)cnn3c2)cc1
0.0

Recorded test call requested for Cc1cccc(-c2cn3ccnc3c(-c3ccc4ncn(Cc5ccccc5)c4c3)n2)c1
0.0

Recorded test call requested for Cc1ccc(-n2cc(-c3ccccc3)c3c2N=NN2CCN=C32)cc1
0.0

Recorded test call requested for Clc1ccc(-c2ccc(CNCC3CCNCC3)o2)c(-c2ccccc2)c1
1.0

Recorded test call requested for CC(=O)c1ccc(NS(=O)(=O)c2cccc(C(=O)Nc3ccc(Br)cc3)c2)cc1
0.0

Recorded test call requested for CCOC(=O)c1cc(C(=O)c2ccc(Br)cc2)n2ccc(/C=C/c3cc[n+](CC(=O)c4ccc(OC)cc4)cc3)cc12
0.0

Recorded test call requested for C=C(C)[C@@H]1CC[C@]2(C(=O)N3CCN(C)CC3)CC[C@]3(C)[C@H](CC[C@@H]4[C@@]5(C)CC[C@H](OCCC#N)C(C)(C)[C@@H]5CC[C@]43C)[C@@H]12
0.0

* * *

Tested on: SN12C renal
protocol.description: NCI-60 one-dose screen, 48 h (100 = growth as untreated, 0 = no growth, -100 = all killed)
condition.parameters: 10 µM unless noted
About 83,000 compounds went through this panel and 20% of them were active in at least one assay; those are over-represented in the sample as a whole.
experimental.readout: growth (%)
// note: answer is a bare numeric in %

Output growth of C[C@@H](Nc1ncnc2ccc(-c3cnc(N)nc3)cc12)c1ccc(F)cc1
33.9

Output growth of CC(=O)Nc1ccc(-n2cnc3cc(-c4ccc(OCCN5CCCCC5)cc4)ccc32)cc1
67.1

Output growth of COc1ccc(C(=O)c2cc(OC)c(OC)c(OC)c2)cc1O
15.2

Output growth of NC(=S)N1N=C(c2ccccc2)CC1c1cn(-c2ccccc2)nc1-c1ccc(OCc2ccccc2)cc1 (centres undefined)
93.2

Output growth of O=c1[nH]nc(-c2ccccc2)c2sc3ncc(-c4ccc(Br)cc4)n3c12
46.1

Output growth of C=CC(=O)N[C@@H](/C=C/C(=O)OCC)Cc1ccc(-c2cc(Cl)cc(Cl)c2)cc1
3.95

Output growth of COc1cccc(-c2nc3occn3c2-c2ccnc(NCCNS(=O)(=O)c3cccc4ccccc34)n2)c1
103

Output growth of C[C@H]1[C@H](C)CC[C@]2(C(=O)Nc3ccc4ncccc4c3)CC[C@]3(C)C(=CC[C@@H]4[C@@]5(C)CCCNC(C)(C)[C@@H]5CC[C@]43C)[C@H]12
-86.1

Output growth of COc1ccc(N2CCN(c3ccc(NC4=C(Cl)C(=O)c5ncccc5C4=O)cc3)CC2)cc1
45.5

Output growth of COc1cc(/C=C\c2cc(OC)c(OC)c(OC)c2)cc(NC(=O)/C=C/c2cc(OC)c(OC)c(OC)c2)c1OC
66.9

Output growth of O=C(Cc1ccc(/C=C/C(=O)c2ncc[nH]2)cc1)Nc1ccc(Cl)cc1
7.28

Output growth of C[C@H]1[C@H](C)CC[C@]2(C(=O)NCC#CCN3CCN(C)CC3)CC[C@]3(C)C(=CC[C@@H]4[C@@]5(C)Cc6c([nH]c7ccccc67)C(C)(C)[C@@H]5CC[C@]43C)[C@H]12
81.2

Output growth of COc1cc(/C=N/NC(=O)c2cnn3c2NC(c2ccccc2)C3)ccc1OCc1ccccc1 (centres undefined)
29.2

Output growth of COc1cc(-c2cc(-c3ccc(N(C)C)cc3)nc(N3CCOCC3)c2C#N)cc(OC)c1OC
53.4

Output growth of COc1cc2nc(-c3ccc(Cl)cc3)cc(OCCCN3CCOCC3)c2cc1OC
38.4

Output growth of CC(=O)OC[C@]12CC[C@@H](C(=O)CBr)[C@@H]1[C@H]1CC[C@@H]3[C@@]4(C)CC[C@H](OC(C)=O)C(C)(C)[C@@H]4CC[C@@]3(C)[C@]1(C)CC2
87

Output growth of Oc1ccc(C(c2ccc(O)cc2)c2ccc(Br)cn2)cc1
1.64

Output growth of O=C(/C=C/c1ccc(Cl)cc1)c1ccc(NC(=O)N2CCN(c3cc4c(cc3F)c(=O)c(C(=O)O)cn4C3CC3)CC2)cc1
86.4

Output growth of OC(c1cccc(C(F)(F)F)c1)c1cnccc1NC1CCCCC1 (centres undefined)
73.5

Output growth of COc1cc(/C=C/c2cc(O)c(C(C)=O)c(O)c2)cc2c1O[C@]1(C)CC[C@@H](O)C(C)(C)[C@H]1C2
82.5

Output growth of CCN(CC)CCOc1ccc(NC(=O)C(C(C)C)N2C(=O)/C(=C/c3ccc(Br)cc3)SC2=S)cc1 (centres undefined)
73.3

Output growth of COc1cc2nc(-c3ccc(Cl)cc3)cc(OCCCN3CCCCC3)c2cc1OC
41.8

Output growth of CCN(CC)c1ccc(C(=O)c2ccccc2)cc1
98.8

Output growth of N#Cc1cc(-c2nc3ccccc3s2)c(=O)n(NS(=O)(=O)c2ccccc2)c1N
99.9

Output growth of Cc1c(C)c([N+](=O)[O-])c(C)c([N+](=O)[O-])c1C
102

Output growth of O=C1CC(=O)OC(c2ccc([N+](=O)[O-])cc2)O1
-37.6

Output growth of COc1cc(-c2n/c(=C\c3c(O)[nH]c4ccc(Cl)cc34)cc3c2=Nc2ccccc2-3)ccc1F
3.41

Output growth of COc1cc2oc(-c3cccc(C(=O)Nc4ccc5c(c4)OCO5)c3)cc(=O)c2c(O)c1OC
68.7

Output growth of CCc1ccc(CNc2ccc(N3CCOCC3)c(C(=O)O)c2)cc1
108

* * *

Test system: LOX IMVI melanoma
protocol.description: NCI-60 one-dose screen, 48 h (100 = growth as untreated, 0 = no growth, -100 = all killed)
condition.parameters: 10 µM unless noted
About 83,000 compounds went through this panel and 20% of them were active in at least one assay; those are over-represented in the sample as a whole.
experimental.readout: growth (%)
// note: answer is a bare numeric in %

Output growth of N#CC1=C(/N=C/c2ccccc2)Oc2c(ccc3ccccc23)C1c1ccc([N+](=O)[O-])cc1 (stereo not given)
90.4

Output growth of COc1ccccc1NS(=O)(=O)c1cccc(C(=O)Nc2ccc(Br)cc2)c1
42.4

Output growth of NCCCCCCNc1cc(-c2cccc(OC(F)(F)F)c2)nc2ccc(N3CCCC3)cc12
-93.6

Output growth of C=C1C(=O)O[C@H]2[C@H]1CC/C(CNC(=O)/C=C/c1cccc(OC)c1)=C\CC[C@@]1(C)O[C@@H]21
0.442

Output growth of COc1ccc(C(=O)CC#N)cc1
94.7

* * *

Test system: SF-539 CNS
protocol.description: NCI-60 one-dose screen, 48 h (100 = growth as untreated, 0 = no growth, -100 = all killed)
condition.parameters: 10 µM unless noted
Compounds without any hit were thinned out: in the full panel of roughly 83,000, 20% have a hit.
Hi! Could you tag entries with growth below 80% as Yes, and those at or above as No? Much appreciated.

Determine whether this molecule shows growth lower than 80% (ties excluded): Cc1c(C(=O)NCCC(=O)NO)sc2ncnc(Nc3ccc(F)c(Cl)c3)c12
No

Determine whether this molecule shows growth lower than 80% (ties excluded): Cn1c(-c2c(N)n(CCCN3CCOCC3)c3nc(C#N)c(C#N)nc23)nc2ccccc21
Yes

Determine whether this molecule shows growth lower than 80% (ties excluded): CC1(C)c2[nH]c3ccccc3c2C[C@]2(C)[C@H]3C(=O)C=C4[C@@H]5C[C@@](C)(C(N)=O)CC[C@]5(C)CC[C@@]4(C)[C@]3(C)CC[C@@H]12
No

Determine whether this molecule shows growth lower than 80% (ties excluded): O=S(=O)(NCCCNc1nccc(-c2c(-c3cccc(F)c3)nc3sccn23)n1)c1cccc2ccccc12
Yes

Determine whether this molecule shows growth lower than 80% (ties excluded): O=C(Cn1c[n+](CC(=O)c2ccc([N+](=O)[O-])cc2)c2ccccc21)Nc1cccc2cccnc12
No

Determine whether this molecule shows growth lower than 80% (ties excluded): O=C(CSc1nc2sc3c(c2c(=O)n1-c1ccc(Cl)cc1)CCCC3)Nc1nc(-c2cccc(Br)c2)cs1
No

Determine whether this molecule shows growth lower than 80% (ties excluded): COc1cc(/C(C)=C(\c2ccc(Cl)cc2)c2ccc(OCCN3CCCC3)cc2)ccc1F
Yes

Determine whether this molecule shows growth lower than 80% (ties excluded): COc1cccc(-c2nc3occn3c2-c2ccnc(NCCCNS(=O)(=O)c3ccc(C(F)(F)F)cc3)n2)c1
No

Determine whether this molecule shows growth lower than 80% (ties excluded): COc1ccc(C(=O)/C=C/c2cc3ccccc3n3nnnc23)cc1
No

Determine whether this molecule shows growth lower than 80% (ties excluded): O=Cc1cc2ccccc2nc1Oc1ccc(C(F)(F)F)cc1
No
